Examples of binders with documented Kd follow.
measurementTarget: Botulinum neurotoxin mosaic BoNT/DC (Clostridium botulinum)
procedureText: range-finding KinExA, IgG
Report the figure in nM without appending any unit label.

Quick note, Kd for 4C10.5 IgG (antibody, V domains shown) VH: QVQLVQSGGGVVQPGRSLRLSCGASRFTFSGFDMHWVRQAPGKGLEWVARISHDGSMADYADSLRGRFTISRDNSKNTLYLQMNSLRVEDTALYYCAKDRWRSGSYPAFEIWGQGTMVTVSS VL: EIVLTQSPSFLSAFVGDRITITCRASQGISNRLAWYQQKPGKAPNLLIHPASTLQSGVPSRFSGSGSGTDFTLTISSLQPEDFATYYCQQANSFPLTFGGGTKVEIKR landed at 0.987

Quick note, Kd for 4C10.8 IgG (antibody, V domains shown) VH: QVQLVQSGGGVVQPGRSLRLSCGASRFTFSGFDMHWVRQAPGKGLEWVARISHDGSMADYADSLRGRFTISRDNSKNTLYLQMNSLRVEDTALYYCAKDPWRSGSYPAFEIWGQGTMVTVSS VL: EIVLTQSPSFLSAFIGDRITITCRASQGISNRLAWYQQKPGKAPNLLIYPASTLQSGVPSRFSGSGSGTDFTLTISSLQPEDFATYYCQQANSFPLTFGGGTKVEIKR landed at 0.0564

Quick note, Kd for 4C10.18 IgG (antibody, V domains shown) VH: QVQLVQSGGGVAQPGRSLRLSCGASRFTFSGFDMHWVRQAPGKGLEWVARISHDGSMADYADSLRGRFTISRDNSKNTLYLQMNSLRVEDTALYYCAKDRWRSGSYPAFEIWGQGTMVTVSS VL: EIVLTQSPSFLSAFVGDRITITCRASQGIGNRLAWYQQKPGKAPNLLIHPASTLQSGVPSRFSGSGSGTDFTLTISSLQPEDFATYYCQQAHRFPLTFGGGTKVEIKR landed at 0.109

Quick note, Kd for 4C10.20 IgG (antibody, V domains shown) VH: QVQLVQSGGGVVQPGRSLRLSCGASRFTFSGFDMHWVRQAPGKGLEWVARISHDGSMADYADSLRGRFTISRDNSKNTLYLQMNSLRVEDTALYYCAKDPWRSGSYPAFEIWGQGTMVTVSS VL: EIVLTQSPSFLSAFIGDRITITCRASQGIGNRLAWYQQKPGKAPNLLIYPASTLQSGVPSRFSGSGSGTDFTLTISSLQPEDFATYYCQQANSFPLTFGGGTKVEIKR landed at 0.0166

Quick note, Kd for 4C10.17 IgG (antibody, V domains shown) VH: QVQLVQSGGGVVQPGRSLRLSCGASRFTFSGFDMHWVRQAPGKGLEWVARISHDGSMADYADSLRGRFTISRDNSKNTLYLQMNSLRVEDTALYYCAKDRWRSGSYPAFEIWGQGTMVTVSS VL: EIVLTQSPSFLSAFVGDRITITCRASQGISNRLAWYQQKPGKAPNLLIHPASSLQSGVPSRFSGSGSGTDFTLTISSLQPEDFATYYCQQANSFPLTFGGGTKVEIKR landed at 0.766
